assay: Pharmacokinetics of compound I-1 in the dog by intravenous, oral gavage and oral capsule routes; type: in vivo, beagle dogs; conditions: male, beagle, dog, plasma, po, 10 mg/kg, Group 2: PO Gavage 10 mg/kg; 0.5 h; Subject 3; read-out: Concentration at time point
measurementLabel: concentration at 0.5 h
Give the value; after it, write the unit.

Task item: What value of concentration at 0.5 h has been reported for the following compound? CC(C)(O)c1nc2ccccc2cc1N
Reply: 3260 ng/mL

----------
test: Pharmacokinetics of compound I-1 in the dog by intravenous, oral gavage and oral capsule routes; type: in vivo, beagle dogs; conditions: male, beagle, dog, plasma, oral, 7 mg/kg, Group 3: PO Capsule 7 mg/kg; 4 h; Subject 3; read-out: Concentration at time point
measurementLabel: concentration at 4 h (ng/mL)
Hi! Could you send only the number? It should be in ng/mL, unit omitted.

Task item: Tell me the measured concentration at 4 h of CC(C)(O)c1nc2ccccc2cc1N [I-1] , please.
Reply: 1150

----------
assay: Pharmacokinetics of compound I-1 in the dog by intravenous, oral gavage and oral capsule routes; type: in vivo, beagle dogs; details: male, beagle, dog, plasma, iv, 3 mg/kg, Group 1: IV 3 mg/kg; 4 h; Subject 2; read-out: Concentration at time point
measurementLabel: concentration at 4 h
Reply with the number, then its unit.

Task item: Need concentration at 4 h, item CC(C)(O)c1nc2ccccc2cc1N
Reply: 287 ng/mL
